# Tested on: HCT116
# Assay Overview: Proliferation inhibition, CellTiter-Glo
# Assay type: cell-based, human
# Condition Parameters: Homo sapiens, HCT-116, 72 h; Table D-1; 3 days; read-out: HCT116 Prolif. EC50
pEC50: −log10 of the molar value.
Recorded Metric: pEC50

Molecule	Result
Cc1ccc2c(Nc3cccc(Cl)c3F)nccc2c1NC(=O)c1csc2c(N)ncnc12 [Belvarafenib, reference compound]	5.52 to 6.52

Field: next molecule
Exercise: Find the recorded pEC50 belonging to `Cc1c(F)cccc1S(=O)(=O)Nc1ccc(F)c(Nc2ncnc3cnc(-n4cnc5c(-c6cccnc6)cccc54)nc23)c1F` and report it.
Key: 5.52 to 6.52

The origin of these recorded values is patent US20240239801A1.
